target: Adenosine kinase (Toxoplasma gondii, UniProt Q9TVW2); test: Inhibition of Toxoplasma gondii adenosine kinase; details: read-out: IC50
pIC50: −log10 of the molar value.
Below, each entry is listed alongside its reported pIC50.
Measured Parameter: pIC50

Compound	Endpoint Value
COc1ccc(CNc2ncnc3c2ncn3[C@@H]2O[C@H](CO)[C@@H](O)[C@H]2O)c(OC)c1	5.06
OC[C@H]1O[C@@H](n2cnc3c(NCc4ccc(F)cc4)ncnc32)[C@H](O)[C@@H]1O	4.69
OC[C@H]1O[C@@H](n2cnc3c(SCc4ccc(F)cc4)ncnc32)[C@H](O)[C@@H]1O	4.99
O=[N+]([O-])c1ccc(CSc2ncnc3c2ncn3[C@@H]2O[C@H](CO)[C@@H](O)[C@H]2O)cc1 [NITROBENZYLMERCAPTOPURINE RIBONUCLEOSIDE]	4.92
OC[C@H]1O[C@@H](n2cnc3c(SCc4cccc(C(F)(F)F)c4)ncnc32)[C@H](O)[C@@H]1O	5.06
OC[C@H]1O[C@@H](n2cnc3c(SCc4ccccc4)ncnc32)[C@H](O)[C@@H]1O [6-BENZYLTHIOINOSINE]	5.03
OC[C@H]1O[C@@H](n2cnc3c(SCc4ccc(Br)cc4)ncnc32)[C@H](O)[C@@H]1O	4.84
OC[C@H]1O[C@@H](n2cnc3c(NCc4ccc(Cl)c(Cl)c4)ncnc32)[C@H](O)[C@@H]1O	4.84
Cc1cc(C)c(CSc2ncnc3c2ncn3[C@@H]2O[C@H](CO)[C@@H](O)[C@H]2O)c(C)c1	4.51
OC[C@H]1O[C@@H](n2cnc3c(SCc4ccccc4F)ncnc32)[C@H](O)[C@@H]1O	5.09
OC[C@H]1O[C@@H](n2cnc3c(SCc4c(F)cccc4Cl)ncnc32)[C@H](O)[C@@H]1O	5.06
Cc1ccc(CSc2ncnc3c2ncn3[C@@H]2O[C@H](CO)[C@@H](O)[C@H]2O)cc1	5.11
OC[C@H]1O[C@@H](n2cnc3c(NCc4ccc(Cl)cc4)ncnc32)[C@H](O)[C@@H]1O	4.59
OC[C@H]1O[C@@H](n2cnc3c(NCc4ccc(C(F)(F)F)cc4)ncnc32)[C@H](O)[C@@H]1O	4.64
N#Cc1ccc(CSc2ncnc3c2ncn3[C@@H]2O[C@H](CO)[C@@H](O)[C@H]2O)cc1	5.37
O=[N+]([O-])c1cccc(CSc2ncnc3c2ncn3[C@@H]2O[C@H](CO)[C@@H](O)[C@H]2O)c1	5.21
Cc1cccc(CSc2ncnc3c2ncn3[C@@H]2O[C@H](CO)[C@@H](O)[C@H]2O)c1	5.09

====

molecular target: Adenosine kinase (Toxoplasma gondii, UniProt Q9TVW2); test: Inhibition of Toxoplasma gondii adenosine kinase; conditions: read-out: IC50
Measured Parameter: IC50 (µM)

Chem Smiles	Endpoint Value
CC(=O)Oc1ccc(CSc2ncnc3c2ncn3[C@@H]2O[C@H](CO)[C@@H](O)[C@H]2O)cc1	15
COc1ccccc1CNc1ncnc2c1ncn2[C@@H]1O[C@H](CO)[C@@H](O)[C@H]1O	8.7
OC[C@H]1O[C@@H](n2cnc3c(SCc4ccc(Cl)cc4)ncnc32)[C@H](O)[C@@H]1O	8.11
OC[C@H]1O[C@@H](n2cnc3c(NCc4ccccc4F)ncnc32)[C@H](O)[C@@H]1O	37.8

====

target: Adenosine kinase (Toxoplasma gondii, UniProt Q9TVW2); test: Inhibition of Toxoplasma gondii adenosine kinase; conditions: read-out: pIC50 (converted)
Below, each entry is listed alongside its reported IC50.

Molecule	IC50 / µM
N#Cc1ccc(CNc2ncnc3c2ncn3[C@@H]2O[C@H](CO)[C@@H](O)[C@H]2O)c(Cl)c1	10.4
COc1ccc(CNc2ncnc3c2ncn3[C@@H]2O[C@H](CO)[C@@H](O)[C@H]2O)cc1	7.19
OC[C@H]1O[C@@H](n2cnc3c(SCc4ccc(Cl)c(Cl)c4)ncnc32)[C@H](O)[C@@H]1O	21.1
OC[C@H]1O[C@@H](n2cnc3c(NCc4ccccc4)ncnc32)[C@H](O)[C@@H]1O [N6-BENZYLADENOSINE]	794

====

Molecular target: Adenosine kinase (Toxoplasma gondii, UniProt Q9TVW2)
Sequence (Q9TVW2 whole entry): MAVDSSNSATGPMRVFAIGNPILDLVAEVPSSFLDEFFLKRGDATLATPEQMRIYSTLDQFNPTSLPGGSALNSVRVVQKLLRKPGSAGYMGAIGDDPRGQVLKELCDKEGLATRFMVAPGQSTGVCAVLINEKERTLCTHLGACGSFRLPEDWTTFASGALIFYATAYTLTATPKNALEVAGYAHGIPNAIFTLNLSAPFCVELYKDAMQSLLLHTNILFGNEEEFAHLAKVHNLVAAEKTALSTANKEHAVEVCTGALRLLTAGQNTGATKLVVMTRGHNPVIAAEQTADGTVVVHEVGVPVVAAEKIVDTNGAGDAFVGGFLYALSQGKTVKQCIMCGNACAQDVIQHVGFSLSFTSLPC
Experiment: Inhibition of Toxoplasma gondii adenosine kinase
Details: read-out: IC50
pIC50: −log10 of the molar value.

Compound	pIC50
OC[C@H]1O[C@@H](n2cnc3c(SCc4ccc(Cl)cc4Cl)ncnc32)[C@H](O)[C@@H]1O	5.14
N#Cc1ccc(CNc2ncnc3c2ncn3[C@@H]2O[C@H](CO)[C@@H](O)[C@H]2O)cc1 [P-CYANO-N6-BENZYLADENOSINE]	5.08
Cc1cccc(CNc2ncnc3c2ncn3[C@@H]2O[C@H](CO)[C@@H](O)[C@H]2O)c1	5.07
OC[C@H]1O[C@@H](n2cnc3c(NCc4ccc(F)cc4F)ncnc32)[C@H](O)[C@@H]1O	5.09
O=[N+]([O-])c1ccccc1CNc1ncnc2c1ncn2[C@@H]1O[C@H](CO)[C@@H](O)[C@H]1O [O-NITRO-N6-BENZYLADENOSINE]	4.82
N#Cc1ccc(CNc2ncnc3c2ncn3[C@@H]2O[C@H](CO)[C@@H](O)[C@H]2O)c(Cl)c1	4.68
COc1ccc(CNc2ncnc3c2ncn3[C@@H]2O[C@H](CO)[C@@H](O)[C@H]2O)c(F)c1	5.02
CC(C)(C)c1ccc(CSc2ncnc3c2ncn3[C@@H]2O[C@H](CO)[C@@H](O)[C@H]2O)cc1	4.63

====

target: Adenosine kinase (Toxoplasma gondii); assay: Inhibition of Toxoplasma gondii adenosine kinase; settings: read-out: IC50
pIC50: −log10 of the molar value.
Below, each entry is listed alongside its reported pIC50.
Measured Parameter: pIC50

Chem Smiles	Test System	Endpoint Value
Cc1ccccc1CSc1ncnc2c1ncn2[C@@H]1O[C@H](CO)[C@@H](O)[C@H]1O	Adenosine kinase (Toxoplasma gondii)	5.11
OC[C@H]1O[C@@H](n2cnc3c(NCc4ccccc4Cl)ncnc32)[C@H](O)[C@@H]1O	Adenosine kinase (Toxoplasma gondii)	4.97
OC[C@H]1O[C@@H](n2cnc3c(SCc4ccccc4Cl)ncnc32)[C@H](O)[C@@H]1O	Adenosine kinase (Toxoplasma gondii)	5.17
Cc1ccc(CNc2ncnc3c2ncn3[C@@H]2O[C@H](CO)[C@@H](O)[C@H]2O)cc1	Adenosine kinase (Toxoplasma gondii)	4.98
COc1ccc(CSc2ncnc3c2ncn3[C@@H]2O[C@H](CO)[C@@H](O)[C@H]2O)cc1	Adenosine kinase (Toxoplasma gondii)	5.46

====

Below, each entry is listed alongside its reported IC50.
Target: Adenosine kinase (Toxoplasma gondii)
Sequence (Q9TVW2 whole entry): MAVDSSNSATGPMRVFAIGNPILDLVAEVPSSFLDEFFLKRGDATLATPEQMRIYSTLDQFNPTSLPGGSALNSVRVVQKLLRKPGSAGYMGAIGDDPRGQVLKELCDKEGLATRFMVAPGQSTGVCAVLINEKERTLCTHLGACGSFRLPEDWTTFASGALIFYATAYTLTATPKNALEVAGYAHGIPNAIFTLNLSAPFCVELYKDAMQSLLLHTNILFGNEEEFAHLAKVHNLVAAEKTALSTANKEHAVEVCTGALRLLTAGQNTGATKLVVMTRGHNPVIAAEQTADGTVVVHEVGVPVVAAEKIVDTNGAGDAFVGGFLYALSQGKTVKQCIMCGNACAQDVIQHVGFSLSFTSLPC
Experiment: Inhibition of Toxoplasma gondii adenosine kinase
Conditions: read-out: IC50

Compound	Test System	IC50 / µM
COc1ccc(CNc2ncnc3c2ncn3[C@@H]2O[C@H](CO)[C@@H](O)[C@H]2O)cc1	Adenosine kinase (Toxoplasma gondii)	7.5
CC(C)c1ccc(CNc2ncnc3c2ncn3[C@@H]2O[C@H](CO)[C@@H](O)[C@H]2O)cc1 [P-ISOPROPYL-N6-BENZYLADENOSINE]	Adenosine kinase (Toxoplasma gondii)	22
C=Cc1ccc(CNc2ncnc3c2ncn3[C@@H]2O[C@H](CO)[C@@H](O)[C@H]2O)cc1 [P-VINYL-N6-BENZYLADENOSINE]	Adenosine kinase (Toxoplasma gondii)	26.2
OC[C@H]1O[C@@H](n2cnc3c(SCc4ccc(Cl)c(Cl)c4)ncnc32)[C@H](O)[C@@H]1O	Adenosine kinase (Toxoplasma gondii)	10.4
OC[C@H]1O[C@@H](n2cnc3c(NCc4cccc(F)c4)ncnc32)[C@H](O)[C@@H]1O	Adenosine kinase (Toxoplasma gondii)	23.2
OC[C@H]1O[C@@H](n2cnc3c(SCc4ccc(OC(F)(F)F)cc4)ncnc32)[C@H](O)[C@@H]1O	Adenosine kinase (Toxoplasma gondii)	24.8
OC[C@H]1O[C@@H](n2cnc3c(NCc4ccc(Cl)cc4Cl)ncnc32)[C@H](O)[C@@H]1O	Adenosine kinase (Toxoplasma gondii)	9.3

Values from ChEMBL document CHEMBL3045254
